- Tested on: BT-474 cells
- assay: Cytotoxicity concentration-response assay (CellTiter GLO, cellular ATP) in BT-474 cells cultured in 2D or 3D
- testContext: Homo sapiens, BT-474, read-out: calculated EC50 values in confirmatory dose response assays, BT-474, culture condition (2D/3D) not given
observable: EC50

| compound | targetSystem | observable | observed |
| --- | --- | --- | --- |
| Cc1nc(Nc2ncc(C(=O)Nc3c(C)cccc3Cl)s2)cc(N2CCN(CCO)CC2)n1 [dasatinib] | BT-474 cells | EC50 | 6 to 8 µM |

* * *

- Tested on: HF+HE co-cultures
- assay: Concentration-response cell viability assay (CellTiterGLO) in HF+HE co-cultures
- Type: cell-based, human
- testContext: Homo sapiens, 48 h, HF+HE 3D co-culture, 15-point concentration response, 48 h
pEC50: −log10 of the molar value.

| molecule | pEC50 |
| --- | --- |
| CS(=O)(=O)CCNCc1ccc(-c2ccc3ncnc(Nc4ccc(OCc5cccc(F)c5)c(Cl)c4)c3c2)o1 [lapatinib] | 4.52 |
